subjectOfTest: T1, SSB-2ΔSB (recombinant murine SSB-2 SPRY domain, residues 12-224) (mouse, UniProt O88838 12-224)
T1 construct: 226 residues in total; expressed as GST fusion in E. coli, GST cleaved off with thrombin; 15N-labelled for NMR; coupled to NHS-Sepharose for pull-downs; also called SPSB2
T1 sequence: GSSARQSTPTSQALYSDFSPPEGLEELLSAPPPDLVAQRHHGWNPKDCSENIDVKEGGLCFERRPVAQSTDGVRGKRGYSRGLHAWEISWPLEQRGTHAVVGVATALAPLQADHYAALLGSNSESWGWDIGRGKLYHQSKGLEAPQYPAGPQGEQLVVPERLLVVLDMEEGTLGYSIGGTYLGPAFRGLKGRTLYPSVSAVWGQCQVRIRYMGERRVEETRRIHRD
protocolDetails: ITC, 25 C, peptide injected into SSB-2ΔSB
So I've got a bunch of binders here, and I need their pKd values.
// field semantics: pKd = negative decimal log of concentration (mol/L)

Prompt: Which value of pKd has been reported for Ac-KEEADINNNVKKT-NH2 [iNOS N-terminal peptide III, Ac-KEEADINNNVKKT-NH2] in the records?
Completion: 6.90

Prompt: Let us now turn to Ac-KEEKDINNNVKAT-NH2 [iNOS N-terminal peptide XIII, Ac-KEEKDINNNVKAT-NH2]
Completion: 7.53

Prompt: Let us now turn to Ac-KEEKDIQNNVKKT-NH2 [iNOS N-terminal peptide VIII, Ac-KEEKDIQNNVKKT-NH2]
Completion: 4.39

Prompt: Let us now turn to Ac-KEEKDINANVKKT-NH2 [iNOS N-terminal peptide IX, Ac-KEEKDINANVKKT-NH2]
Completion: 6.08

Prompt: Let us now turn to Ac-KEAKDINNNVKKT-NH2 [iNOS N-terminal peptide II, Ac-KEAKDINNNVKKT-NH2]
Completion: 7.85

Prompt: Let us now turn to Ac-KEEKDANNNVKKT-NH2 [iNOS N-terminal peptide VI, Ac-KEEKDANNNVKKT-NH2]
Completion: 7.63

Prompt: Let us now turn to Ac-KEEKDIANNVKKT-NH2 [iNOS N-terminal peptide VII, Ac-KEEKDIANNVKKT-NH2]
Completion: 4.76
